These entries and their values trace back to patent US20150098945A1.

# Target system: T1, recombinant human ROBO4 extracellular region polypeptide rROBO4-ECD (human, UniProt Q8WZ75 28-461)
# T1 construct: Expressed from pEF6/V5-His-TOPO in FreeStyle 293-F cells; also called human ROBO4-ECD
# T1 sequence: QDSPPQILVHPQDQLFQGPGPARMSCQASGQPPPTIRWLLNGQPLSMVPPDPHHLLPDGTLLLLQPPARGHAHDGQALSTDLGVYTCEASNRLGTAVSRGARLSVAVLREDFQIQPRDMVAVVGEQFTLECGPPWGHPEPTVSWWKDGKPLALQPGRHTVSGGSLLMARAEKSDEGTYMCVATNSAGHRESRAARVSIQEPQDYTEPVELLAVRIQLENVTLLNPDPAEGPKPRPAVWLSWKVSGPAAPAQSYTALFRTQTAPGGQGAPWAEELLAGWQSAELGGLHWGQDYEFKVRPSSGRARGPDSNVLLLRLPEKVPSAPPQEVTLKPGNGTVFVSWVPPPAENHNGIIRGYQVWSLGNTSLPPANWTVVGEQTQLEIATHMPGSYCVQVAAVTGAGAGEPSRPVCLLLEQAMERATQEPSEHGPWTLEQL
# Protocol details: SPR (Biacore 3000), antibody captured via anti-human IgG on CM5, rROBO4-ECD as analyte, 1:1 model

# Binder, Scale unit, Kd
data = [
    ("humanized MAb1 antibody H-1143 (antibody, human IgG2, kappa, V domains shown, Human IgG2 / kappa constant regions; also called hMAb1-H2-type heavy chain + hMAb1-L2-type light chain) VH: EVQLVESGGGLVQPGGSLRLSCAASGFTFSTYAMSWVRQAPGKGLEWVATISQGGTYTYYPDSVKGRFTISRDNAKNTLYLQMNSLRAEDTAVYYCARLIYYDYLDYWGQGTLVTVSS VL: DIVMTQSPLSLPVTLGEPASISCRSSQSLENENKNLYLNWYLQKPGQSPQLLIYRVSNRFSGVPDRFSGSGSGTDFTLKISRVEAEDVGVYYCLQVTHVPWTFGPGTKVDIKR", "nM", 3.5),
    ("humanized MAb1 antibody H-2143 (antibody, human IgG2, kappa, V domains shown, Human IgG2 / kappa constant regions; also called hMAb1-H4-type heavy chain + hMAb1-L2-type light chain) VH: EVQLVESGGGLVQPGGSLRLSCAASGFTFSTYAMSWVRQAPGKRLEWVATISQGGTYTYYPDSVKGRFTISRDNAKNTLYLQMNSLRAEDTAVYYCARLIYYDYLDYWGQGTLVTVSS VL: DIVMTQSPLSLPVTLGEPASISCRSSQSLENENKNLYLNWYLQKPGQSPQLLIYRVSNRFSGVPDRFSGSGSGTDFTLKISRVEAEDVGVYYCLQVTHVPWTFGPGTKVDIKR", "nM", 1.7),
    ("humanized MAb1 antibody H-2140 (antibody, human IgG2, kappa, V domains shown, Human IgG2 / kappa constant regions; also called hMAb1-H4-type heavy chain + hMAb1-L1-type light chain) VH: EVQLVESGGGLVQPGGSLRLSCAASGFTFSTYAMSWVRQAPGKRLEWVATISQGGTYTYYPDSVKGRFTISRDNAKNTLYLQMNSLRAEDTAVYYCARLIYYDYLDYWGQGTLVTVSS VL: DIVMTQSPLSLPVTLGEPASISCRSSQSLENSNGNTYLNWYLQKPGQSPQLLIYRVSNRFSGVPDRFSGSGSGTDFTLKISRVEAEDVGVYYCLQVTHVPWTFGPGTKVDIKR", "nM", 1.8),
    ("humanized MAb1 antibody H-1140 (antibody, human IgG2, kappa, V domains shown, Human IgG2 / kappa constant regions; also called hMAb1-H2-type heavy chain + hMAb1-L1-type light chain) VH: EVQLVESGGGLVQPGGSLRLSCAASGFTFSTYAMSWVRQAPGKGLEWVATISQGGTYTYYPDSVKGRFTISRDNAKNTLYLQMNSLRAEDTAVYYCARLIYYDYLDYWGQGTLVTVSS VL: DIVMTQSPLSLPVTLGEPASISCRSSQSLENSNGNTYLNWYLQKPGQSPQLLIYRVSNRFSGVPDRFSGSGSGTDFTLKISRVEAEDVGVYYCLQVTHVPWTFGPGTKVDIKR", "nM", 3.9),
    ("humanized MAb1 antibody H-1040 (antibody, human IgG2, kappa, V domains shown, Human IgG2 / kappa constant regions; also called hMAb1-H1-type heavy chain + hMAb1-L1-type light chain) VH: EVQLVESGGGLVQPGGSLRLSCAASGFTFSTYAMSWVRQAPGKGLEWVATISNGGTYTYYPDSVKGRFTISRDNAKNTLYLQMNSLRAEDTAVYYCARLIYYDYLDYWGQGTLVTVSS VL: DIVMTQSPLSLPVTLGEPASISCRSSQSLENSNGNTYLNWYLQKPGQSPQLLIYRVSNRFSGVPDRFSGSGSGTDFTLKISRVEAEDVGVYYCLQVTHVPWTFGPGTKVDIKR", "nM", 0.41),
    ("humanized MAb1 antibody H-2040 (antibody, human IgG2, kappa, V domains shown, Human IgG2 / kappa constant regions; also called hMAb1-H3-type heavy chain + hMAb1-L1-type light chain) VH: EVQLVESGGGLVQPGGSLRLSCAASGFTFSTYAMSWVRQAPGKRLEWVATISNGGTYTYYPDSVKGRFTISRDNAKNTLYLQMNSLRAEDTAVYYCARLIYYDYLDYWGQGTLVTVSS VL: DIVMTQSPLSLPVTLGEPASISCRSSQSLENSNGNTYLNWYLQKPGQSPQLLIYRVSNRFSGVPDRFSGSGSGTDFTLKISRVEAEDVGVYYCLQVTHVPWTFGPGTKVDIKR", "nM", 0.4),
]
